Setup conditions: in DMSO, 308.15 K
Quantity name: solubility (mole fraction)

input: Name the reported solubility (mole fraction) value associated with the molecule c1ccc(-c2nnn[nH]2)cc1
output: 0.356

====

Setup conditions: in isopropanol, 308.15 K
Quantity name: solubility (mole fraction)

input: Name the reported solubility (mole fraction) value associated with the molecule c1ccc(-c2nnn[nH]2)cc1
output: 0.0227

====

Setup conditions: in acetonitrile, 285.65 K
Quantity name: solubility (mole fraction)
Please reply with the number alone, leaving off any unit.

input: Name the reported solubility (mole fraction) value associated with the molecule c1ccc(-c2nnn[nH]2)cc1
output: 0.00197

====

Setup conditions: in ethyl acetate, 303.15 K
Quantity name: solubility (mole fraction)
Please reply with the number alone, leaving off any unit.

input: Name the reported solubility (mole fraction) value associated with the molecule c1ccc(-c2nnn[nH]2)cc1
output: 0.00838

====

Setup conditions: in ethanol, 288.15 K
Quantity name: solubility (mole fraction)

input: Name the reported solubility (mole fraction) value associated with the compound c1ccc(-c2nnn[nH]2)cc1
output: 0.0164

====

Setup conditions: in cyclohexane, 305.65 K
Quantity name: solubility (mole fraction)
Please reply with the number alone, leaving off any unit.

input: Name the reported solubility (mole fraction) value associated with the compound c1ccc(-c2nnn[nH]2)cc1
output: 7.5e-06

====

Setup conditions: in ethyl acetate, 285.65 K
Quantity name: solubility (mole fraction)
Please reply with the number alone, leaving off any unit.

input: Name the reported solubility (mole fraction) value associated with the molecule c1ccc(-c2nnn[nH]2)cc1
output: 0.00648

====

Setup conditions: in n-propanol, 295.65 K
Quantity name: solubility (mole fraction)
Please reply with the number alone, leaving off any unit.

input: Name the reported solubility (mole fraction) value associated with the compound c1ccc(-c2nnn[nH]2)cc1
output: 0.0167

====

Setup conditions: in 2-butanone, 303.15 K
Quantity name: solubility (mole fraction)
Please reply with the number alone, leaving off any unit.

input: Name the reported solubility (mole fraction) value associated with the molecule c1ccc(-c2nnn[nH]2)cc1
output: 0.022

====

Setup conditions: in ethyl acetate, 290.65 K
Quantity name: solubility (mole fraction)
Please reply with the number alone, leaving off any unit.

input: Name the reported solubility (mole fraction) value associated with the compound c1ccc(-c2nnn[nH]2)cc1
output: 0.00691

====

Setup conditions: in 2-butanone, 285.65 K
Quantity name: solubility (mole fraction)
Please reply with the number alone, leaving off any unit.

input: Name the reported solubility (mole fraction) value associated with the molecule c1ccc(-c2nnn[nH]2)cc1
output: 0.0163

====

Setup conditions: in acetone, 308.15 K
Quantity name: solubility (mole fraction)
Please reply with the number alone, leaving off any unit.

input: Name the reported solubility (mole fraction) value associated with the compound c1ccc(-c2nnn[nH]2)cc1
output: 0.0256

====

Setup conditions: in acetone, 293.15 K
Quantity name: solubility (mole fraction)
Please reply with the number alone, leaving off any unit.

input: Name the reported solubility (mole fraction) value associated with the compound c1ccc(-c2nnn[nH]2)cc1
output: 0.02

====

Setup conditions: in toluene, 315.65 K
Quantity name: solubility (mole fraction)
Please reply with the number alone, leaving off any unit.

input: Name the reported solubility (mole fraction) value associated with the compound c1ccc(-c2nnn[nH]2)cc1
output: 0.000146

====

Setup conditions: in n-propanol, 308.15 K
Quantity name: solubility (mole fraction)
Please reply with the number alone, leaving off any unit.

input: Name the reported solubility (mole fraction) value associated with the molecule c1ccc(-c2nnn[nH]2)cc1
output: 0.0204

====

Setup conditions: in DMSO, 313.15 K
Quantity name: solubility (mole fraction)
Please reply with the number alone, leaving off any unit.

input: Name the reported solubility (mole fraction) value associated with the compound c1ccc(-c2nnn[nH]2)cc1
output: 0.384

====

Setup conditions: in DMSO, 315.65 K
Quantity name: solubility (mole fraction)
Please reply with the number alone, leaving off any unit.

input: Name the reported solubility (mole fraction) value associated with the compound c1ccc(-c2nnn[nH]2)cc1
output: 0.398

====

Setup conditions: in acetone, 295.65 K
Quantity name: solubility (mole fraction)
Please reply with the number alone, leaving off any unit.

input: Name the reported solubility (mole fraction) value associated with the molecule c1ccc(-c2nnn[nH]2)cc1
output: 0.0208

====

Setup conditions: in acetone, 290.65 K
Quantity name: solubility (mole fraction)
Please reply with the number alone, leaving off any unit.

input: Name the reported solubility (mole fraction) value associated with the compound c1ccc(-c2nnn[nH]2)cc1
output: 0.0192

====

Setup conditions: in 1,4-dioxane, 293.15 K
Quantity name: solubility (mole fraction)
Please reply with the number alone, leaving off any unit.

input: Name the reported solubility (mole fraction) value associated with the compound c1ccc(-c2nnn[nH]2)cc1
output: 0.0114

====

Setup conditions: in toluene, 310.65 K
Quantity name: solubility (mole fraction)
Please reply with the number alone, leaving off any unit.

input: Name the reported solubility (mole fraction) value associated with the compound c1ccc(-c2nnn[nH]2)cc1
output: 0.000113

====

Setup conditions: in DMF, 295.65 K
Quantity name: solubility (mole fraction)
Please reply with the number alone, leaving off any unit.

input: Name the reported solubility (mole fraction) value associated with the compound c1ccc(-c2nnn[nH]2)cc1
output: 0.269

====

Setup conditions: in n-propanol, 298.15 K
Quantity name: solubility (mole fraction)

input: Name the reported solubility (mole fraction) value associated with the compound c1ccc(-c2nnn[nH]2)cc1
output: 0.0174

====

Setup conditions: in methanol, 315.65 K
Quantity name: solubility (mole fraction)
Please reply with the number alone, leaving off any unit.

input: Name the reported solubility (mole fraction) value associated with the compound c1ccc(-c2nnn[nH]2)cc1
output: 0.0289

====

Setup conditions: in 2-butanone, 288.15 K
Quantity name: solubility (mole fraction)
Please reply with the number alone, leaving off any unit.

input: Name the reported solubility (mole fraction) value associated with the compound c1ccc(-c2nnn[nH]2)cc1
output: 0.017

====

Setup conditions: in toluene, 298.15 K
Quantity name: solubility (mole fraction)

input: Name the reported solubility (mole fraction) value associated with the molecule c1ccc(-c2nnn[nH]2)cc1
output: 5.84e-05

====

Setup conditions: in 2-butanone, 308.15 K
Quantity name: solubility (mole fraction)
Please reply with the number alone, leaving off any unit.

input: Name the reported solubility (mole fraction) value associated with the compound c1ccc(-c2nnn[nH]2)cc1
output: 0.0239

====

Setup conditions: in DMF, 308.15 K
Quantity name: solubility (mole fraction)
Please reply with the number alone, leaving off any unit.

input: Name the reported solubility (mole fraction) value associated with the compound c1ccc(-c2nnn[nH]2)cc1
output: 0.336

====

Setup conditions: in cyclohexane, 283.15 K
Quantity name: solubility (mole fraction)
Please reply with the number alone, leaving off any unit.

input: Name the reported solubility (mole fraction) value associated with the compound c1ccc(-c2nnn[nH]2)cc1
output: 3.56e-06

====

Setup conditions: in ethyl acetate, 293.15 K
Quantity name: solubility (mole fraction)
Please reply with the number alone, leaving off any unit.

input: Name the reported solubility (mole fraction) value associated with the molecule c1ccc(-c2nnn[nH]2)cc1
output: 0.00717

====

Setup conditions: in DMSO, 293.15 K
Quantity name: solubility (mole fraction)
Please reply with the number alone, leaving off any unit.

input: Name the reported solubility (mole fraction) value associated with the molecule c1ccc(-c2nnn[nH]2)cc1
output: 0.278

====

Setup conditions: in toluene, 300.65 K
Quantity name: solubility (mole fraction)
Please reply with the number alone, leaving off any unit.

input: Name the reported solubility (mole fraction) value associated with the compound c1ccc(-c2nnn[nH]2)cc1
output: 6.64e-05

====

Setup conditions: in ethyl acetate, 305.65 K
Quantity name: solubility (mole fraction)
Please reply with the number alone, leaving off any unit.

input: Name the reported solubility (mole fraction) value associated with the molecule c1ccc(-c2nnn[nH]2)cc1
output: 0.00878

====

Setup conditions: in 1,4-dioxane, 305.65 K
Quantity name: solubility (mole fraction)
Please reply with the number alone, leaving off any unit.

input: Name the reported solubility (mole fraction) value associated with the molecule c1ccc(-c2nnn[nH]2)cc1
output: 0.0145

====

Setup conditions: in ethyl acetate, 288.15 K
Quantity name: solubility (mole fraction)

input: Name the reported solubility (mole fraction) value associated with the molecule c1ccc(-c2nnn[nH]2)cc1
output: 0.00665

====

Setup conditions: in toluene, 285.65 K
Quantity name: solubility (mole fraction)
Please reply with the number alone, leaving off any unit.

input: Name the reported solubility (mole fraction) value associated with the compound c1ccc(-c2nnn[nH]2)cc1
output: 2.85e-05

====

Setup conditions: in methanol, 305.65 K
Quantity name: solubility (mole fraction)
Please reply with the number alone, leaving off any unit.

input: Name the reported solubility (mole fraction) value associated with the compound c1ccc(-c2nnn[nH]2)cc1
output: 0.024

====

Setup conditions: in n-propanol, 288.15 K
Quantity name: solubility (mole fraction)

input: Name the reported solubility (mole fraction) value associated with the molecule c1ccc(-c2nnn[nH]2)cc1
output: 0.0148

====

Setup conditions: in acetonitrile, 303.15 K
Quantity name: solubility (mole fraction)
Please reply with the number alone, leaving off any unit.

input: Name the reported solubility (mole fraction) value associated with the compound c1ccc(-c2nnn[nH]2)cc1
output: 0.00359

====

Setup conditions: in acetone, 305.65 K
Quantity name: solubility (mole fraction)
Please reply with the number alone, leaving off any unit.

input: Name the reported solubility (mole fraction) value associated with the molecule c1ccc(-c2nnn[nH]2)cc1
output: 0.0245

====

Setup conditions: in ethyl acetate, 318.15 K
Quantity name: solubility (mole fraction)

input: Name the reported solubility (mole fraction) value associated with the compound c1ccc(-c2nnn[nH]2)cc1
output: 0.0111
